assay: Metabolic stability in human liver microsomes assessed as parent compound remaining at 0.5 uM incubated for 10 mins in presence of NADPH by LC-MS/MS analysis; type: ADME, Microsome; conditions: read-out: Stability
Observable: remaining at 10 min, 0.5 µM (%)

[
  {
    "Compound": "COc1cc(NC(=O)Cc2ccccc2)ccc1-c1cnco1",
    "Numeric Readout": 78
  },
  {
    "Compound": "COc1cc(NC(=O)[C@H](N)CC(C)C)ccc1-c1ccnc(Cl)c1",
    "Numeric Readout": 73
  },
  {
    "Compound": "CN[C@H](CC(C)C)C(=O)Nc1ccc(-c2cnco2)c(OC)c1",
    "Numeric Readout": 53
  },
  {
    "Compound": "COc1cc(NC(=O)[C@H](N)CC(C)C)ccc1-c1cnco1",
    "Numeric Readout": 89
  },
  {
    "Compound": "COc1cc(NC(=O)[C@H](N)CC2CCCCC2)ccc1-c1cnco1",
    "Numeric Readout": 68
  },
  {
    "Compound": "COc1cc(NC(=O)[C@H](N)c2ccccc2)ccc1-c1cnco1",
    "Numeric Readout": 63
  },
  {
    "Compound": "CCCC[C@@H](N)C(=O)Nc1ccc(-c2cnco2)c(OC)c1",
    "Numeric Readout": 87
  },
  {
    "Compound": "COc1cc(NC(=O)[C@@H](N)CC(C)C)ccc1-c1cnco1",
    "Numeric Readout": 71
  },
  {
    "Compound": "CC[C@@H](N)C(=O)Nc1ccc(-c2cnco2)c(OC)c1",
    "Numeric Readout": 81
  },
  {
    "Compound": "COc1cc(NC(=O)[C@H](N)CC2CCC2)ccc1-c1cnco1",
    "Numeric Readout": 70
  },
  {
    "Compound": "CC(C)C[C@@H](N)C(=O)Nc1ccc(-c2cnco2)cc1",
    "Numeric Readout": 87
  },
  {
    "Compound": "CC(C)C1CCCNC1C(=O)Nc1ccc(-c2ccncc2)cc1 (racemic)",
    "Numeric Readout": 77
  },
  {
    "Compound": "COc1cc(NC(=O)[C@H](N)CC(C)C)ccc1-c1ccnnc1",
    "Numeric Readout": 99
  },
  {
    "Compound": "COc1cc(NC(=O)[C@H](N)CC(C)C)ccc1-c1ccncn1",
    "Numeric Readout": 71
  },
  {
    "Compound": "COc1cc(NC(=O)[C@H](N)CCC(C)C)ccc1-c1cnco1",
    "Numeric Readout": 75
  },
  {
    "Compound": "COc1cc(NC(=O)CC2CCCC2)ccc1-c1cnco1",
    "Numeric Readout": 64
  },
  {
    "Compound": "CC(C)C[C@@H](N)C(=O)Nc1ccc(-c2cnco2)c(F)c1",
    "Numeric Readout": 78
  },
  {
    "Compound": "CC(C)C[C@@H](N)C(=O)Nc1ccc(-c2cnco2)c(OC(F)F)c1",
    "Numeric Readout": 84
  },
  {
    "Compound": "CCc1cc(NC(=O)[C@H](N)CC(C)C)ccc1-c1cnco1",
    "Numeric Readout": 88
  },
  {
    "Compound": "COc1cc(NC(=O)[C@H](N)C2CCCCC2)ccc1-c1cnco1",
    "Numeric Readout": 69
  },
  {
    "Compound": "CCOc1cc(NC(=O)[C@H](N)CC(C)C)ccc1-c1cnco1",
    "Numeric Readout": 64
  },
  {
    "Compound": "COc1cc(NC(=O)[C@H]2CCCCN2)ccc1-c1cnco1",
    "Numeric Readout": 94
  },
  {
    "Compound": "COc1cc(NC(=O)C(CN)CC(C)C)ccc1-c1cnco1 (configuration not stated)",
    "Numeric Readout": 97
  },
  {
    "Compound": "COc1cc(NC(=O)[C@H](N)CC(C)C)ccc1-n1ccnc1",
    "Numeric Readout": 92
  },
  {
    "Compound": "CC(C)C[C@@H](N)C(=O)Nc1ccc(-c2cnco2)c(C#N)c1",
    "Numeric Readout": 64
  },
  {
    "Compound": "COc1cc(NC(=O)CCC(C)C)ccc1-c1cnco1",
    "Numeric Readout": 61
  },
  {
    "Compound": "CCC[C@@H](N)C(=O)Nc1ccc(-c2cnco2)c(OC)c1",
    "Numeric Readout": 87
  },
  {
    "Compound": "COc1cc(NC(=O)[C@H](N)CC2CC2)ccc1-c1cnco1",
    "Numeric Readout": 100
  },
  {
    "Compound": "COc1cc(NC(=O)[C@H](N)CC(C)C)ccc1-c1cn[nH]c1",
    "Numeric Readout": 85
  },
  {
    "Compound": "COc1cc(NC(=O)[C@@H]2NCCC[C@@H]2C(C)C)ccc1-c1cnco1",
    "Numeric Readout": 60
  },
  {
    "Compound": "COc1cc(NC(=O)[C@H](N)CC(C)C)ccc1-n1cncn1",
    "Numeric Readout": 79
  },
  {
    "Compound": "COc1cc(NC(=O)[C@@H](C)N)ccc1-c1cnco1",
    "Numeric Readout": 100
  },
  {
    "Compound": "Cc1cc(NC(=O)[C@H](N)CC(C)C)ccc1-c1cnco1",
    "Numeric Readout": 74
  },
  {
    "Compound": "CC(C)C[C@@H](N)C(=O)Nc1ccc(-c2ccncc2)cc1",
    "Numeric Readout": 80
  },
  {
    "Compound": "CCCC[C@H](N)C(=O)Nc1ccc(-c2cnco2)c(OC)c1",
    "Numeric Readout": 65
  },
  {
    "Compound": "COc1cc(NC(=O)C[C@@H](N)C(C)C)ccc1-c1cnco1",
    "Numeric Readout": 82
  },
  {
    "Compound": "COc1cc(NC(=O)[C@H](N)CC(C)C)ccc1-c1ccnc(N)c1",
    "Numeric Readout": 96
  },
  {
    "Compound": "COc1cc(NC(=O)[C@H](N)[C@H](C)O)ccc1-c1cnco1",
    "Numeric Readout": 85
  },
  {
    "Compound": "COc1cc(NC(=O)[C@H]2NCCC[C@H]2C(C)C)ccc1-c1cnco1",
    "Numeric Readout": 19
  },
  {
    "Compound": "COc1cc(NC(=O)[C@H](N)Cc2ccccc2)ccc1-c1cnco1",
    "Numeric Readout": 68
  },
  {
    "Compound": "COc1cc(NC(=O)[C@H](N)CC(C)C)ccc1-c1cncs1",
    "Numeric Readout": 75
  },
  {
    "Compound": "CCC[C@H](N)C(=O)Nc1ccc(-c2cnco2)c(OC)c1",
    "Numeric Readout": 70
  }
]
